Reference source: the supplement of paper PMC8728848

- MEASURED_ON: Gal(b1-6)Gal
- ASSAY_REMARKS: glycan array binding signal (z-score within array); higher = stronger binding
- CONDITION: glycan notation: IUPAC condensed, linker removed
This excerpt belongs to a sample that is enriched for the strongest signals.
Entries and their measured glycan array binding signal (z-score) follow.
// no unit string in output, number only

>>> meas_value("SBD-G4S3-Fc (protein) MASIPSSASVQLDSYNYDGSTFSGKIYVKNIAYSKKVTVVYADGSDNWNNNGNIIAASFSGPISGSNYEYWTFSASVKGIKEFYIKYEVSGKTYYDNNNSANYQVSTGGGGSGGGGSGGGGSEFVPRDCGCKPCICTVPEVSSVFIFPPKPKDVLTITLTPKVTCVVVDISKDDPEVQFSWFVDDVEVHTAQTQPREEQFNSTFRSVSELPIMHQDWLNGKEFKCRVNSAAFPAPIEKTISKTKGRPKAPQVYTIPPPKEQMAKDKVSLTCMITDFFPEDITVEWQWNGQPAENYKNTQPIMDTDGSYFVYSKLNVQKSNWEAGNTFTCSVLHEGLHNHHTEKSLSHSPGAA")
-0.372

Request: Entry rCnSL-A (Clitocybe nebularis) (protein) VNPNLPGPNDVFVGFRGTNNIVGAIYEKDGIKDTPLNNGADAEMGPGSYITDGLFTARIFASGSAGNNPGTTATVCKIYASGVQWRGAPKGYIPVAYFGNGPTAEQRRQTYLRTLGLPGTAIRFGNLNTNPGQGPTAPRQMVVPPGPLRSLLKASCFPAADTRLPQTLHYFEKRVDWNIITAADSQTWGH : reported glycan array binding signal (z-score) = ?
Result: -0.201
